# assay.target: MAGL (Mus musculus (Mouse), UniProt O35678)
# Sequence (O35678 whole entry): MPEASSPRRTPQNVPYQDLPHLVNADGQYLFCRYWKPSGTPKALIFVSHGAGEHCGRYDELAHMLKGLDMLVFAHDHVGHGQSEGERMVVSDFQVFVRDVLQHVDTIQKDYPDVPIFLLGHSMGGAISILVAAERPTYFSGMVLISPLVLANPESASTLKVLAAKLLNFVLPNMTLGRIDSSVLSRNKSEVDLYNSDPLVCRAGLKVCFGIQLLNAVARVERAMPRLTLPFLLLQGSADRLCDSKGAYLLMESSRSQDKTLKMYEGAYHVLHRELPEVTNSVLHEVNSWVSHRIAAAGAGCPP
# assay: In vitro competitive activity-based protein profiling, MAGL (mouse)
# Type: biochemical
# condition.details: 1 μM, read-out: MAGL % inh. 1 μM (mouse)
quantity.measured: inhibition at 1 µM

// returns reported inhibition at 1 µM for input `CN(c1cnn(C(=O)N2CCN(Cc3ccc(C(F)(F)F)cc3N3CCCC3)CC2)c1)S(C)(=O)=O`
≥ 75%

// returns reported inhibition at 1 µM for input CC(=O)N(C)c1cnn(C(=O)N2CC3CN(Cc4ccc(-c5cccnn5)cc4Cl)CC3C2)c1 (centres unmarked)
≥ 75%

// returns reported inhibition at 1 µM for input CC(=O)N(C)c1cnn(C(=O)N2CC3CN(Cc4cccc(Oc5ccccc5Cl)c4)CC3C2)c1 (centres unmarked)
≥ 75%
